experiment: Rat hepatocyte intrinsic clearance; assay type: in vitro ADME
Doc: threshold 10 μL/min/10^6 cells (exclusive). Items with Rat Hepatocyte CLint beneath it return label 1; others return label 0.

query: Please let me know if "Cc1nn(C)c(C)c1Nc1ccc2c(Nc3cnccn3)ccnc2c1" shows Rat Hepatocyte CLint below 10 μL/min/10^6 cells.
result: label 0

query: Report whether reported Rat Hepatocyte CLint is lower than 10 μL/min/10^6 cells (strictly) for "COc1ccc(Nc2ccnc3cc(-c4ccc(C)o4)ccc23)cc1Cl"
result: label 0

query: Hello, is Rat Hepatocyte CLint of the following compound strictly smaller than 10 μL/min/10^6 cells? "COc1ccc(Nc2ccnc3cc(-c4cn[nH]c4)ccc23)cc1Cl"
result: label 1

query: Take the compound "c1cnc(Nc2ccnc3cc(Nc4nccs4)ccc23)cn1" and say whether its Rat Hepatocyte CLint is less than 10 μL/min/10^6 cells.
result: label 0

query: Does the reported Rat Hepatocyte CLint of "Cc1cc(Nc2ccc3c(Nc4cnccn4)ccnc3c2)sn1" stay below 10 μL/min/10^6 cells?
result: label 1

query: Please determine if "COc1ccc(Nc2ccnc3cc(Nc4ccnc(N5CCN(C)CC5)n4)ccc23)cc1Cl" is below 10 μL/min/10^6 cells in terms of Rat Hepatocyte CLint.
result: label 1

query: Please check: Rat Hepatocyte CLint for "COc1ccc(Nc2ccnc3cc(Nc4nccc(N5CCN(C)CC5)n4)ccc23)cc1Cl" , strictly under 10 μL/min/10^6 cells or not?
result: label 1

query: Hello, is Rat Hepatocyte CLint of the following compound strictly smaller than 10 μL/min/10^6 cells? "Cc1n[nH]c(C)c1Nc1ccc2c(Nc3cnccn3)ccnc2c1"
result: label 0

query: hey, is Rat Hepatocyte CLint for "Cn1cc(Nc2ccc3c(Nc4cnccn4)ccnc3c2)cn1" lower than 10 μL/min/10^6 cells or not?
result: label 0

query: Is Rat Hepatocyte CLint of "CN1CCN(c2ncc(-c3ccc4c(Nc5ccc6[nH]nnc6c5)ccnc4c3)cn2)CC1" strictly below 10 μL/min/10^6 cells?
result: label 0

query: Answer whether the compound "CN1CCN(c2ccnc(Nc3ccc4c(Nc5cnccn5)ccnc4c3)n2)CC1" has Rat Hepatocyte CLint strictly less than 10 μL/min/10^6 cells
result: label 1

query: I wonder whether "Cn1ccnc1Nc1ccc2c(Nc3cnccn3)ccnc2c1" has Rat Hepatocyte CLint below 10 μL/min/10^6 cells. Can you tell?
result: label 0

query: Does "CN1CCN(S(=O)(=O)c2ccc(-c3ccc4c(Nc5ccc(OCc6cccc(F)c6)c(Cl)c5)ccnc4c3)cc2)CC1" have Rat Hepatocyte CLint strictly under 10 μL/min/10^6 cells?
result: label 0

query: # strict comparison: is reported Rat Hepatocyte CLint < 10 μL/min/10^6 cells? input = "Cc1ccc(-c2ccc3c(Nc4cnccn4)ccnc3c2)o1"
result: label 0

query: Answer whether the compound "Cn1cc(-c2ccc3c(Nc4cnccn4)ccnc3c2)cn1" has Rat Hepatocyte CLint strictly less than 10 μL/min/10^6 cells
result: label 0

query: Please determine if "c1cnc(Nc2ccnc3cc(-c4cn[nH]c4)ccc23)cn1" is below 10 μL/min/10^6 cells in terms of Rat Hepatocyte CLint.
result: label 1

query: Does the reported Rat Hepatocyte CLint of the following compound sit strictly below 10 μL/min/10^6 cells? "c1cnc(Nc2ccnc3cc(Nc4nccnn4)ccc23)cn1"
result: label 0

query: Below 10 μL/min/10^6 cells on Rat Hepatocyte CLint? Entry "Cc1cnc(Nc2ccc3c(Nc4cnccn4)ccnc3c2)s1"
result: label 0

query: Does "Cn1nccc1Nc1ccc2c(Nc3cnccn3)ccnc2c1" have Rat Hepatocyte CLint strictly under 10 μL/min/10^6 cells?
result: label 0

----------
tested on: HepG2 cells; experiment: Drug toxicity to HepG2 cells (MTT, 48 h); format: cell-based, human; details: tested concentration ranges based on compound solubility
Kind request: treat 7 µM as inclusive, so HepG2 TC50 at 7 µM or higher is class 1, anything lower is class 0.

query: Evaluate "Cc1nnc(Nc2ccnc3cc(-c4ccc(S(=O)(=O)N5CCN(C)CC5)cc4)ccc23)nc1C" : HepG2 TC50 at minimum 7 µM?
result: class 0

query: For this molecule, is measured HepG2 TC50 7 µM or higher? "Cc1cnc(Nc2ccc3c(Nc4cnccn4)ccnc3c2)s1"
result: class 0

query: # check: HepG2 TC50 of "COc1ccc(Nc2ccnc3cc(Nc4nccc(N5CCN(C)CC5)n4)ccc23)cc1Cl" is greater than or equal to 7 µM
result: class 1

query: Say whether "CN1CCN(S(=O)(=O)c2ccc(-c3ccc4c(Nc5cccnc5)ccnc4c3)cc2)CC1" shows HepG2 TC50 of 7 µM or more.
result: class 1

query: Hi team, for "c1cnc(Nc2ccnc3cc(Nc4nccnn4)ccc23)cn1" , is the recorded HepG2 TC50 at or above 7 µM?
result: class 1

query: Hello, I need to know if "c1cnc(Nc2ccnc3cc(-c4cn[nH]c4)ccc23)cn1" has measured HepG2 TC50 not below 7 µM. Thanks!
result: class 0

query: Can "Cn1cc(-c2ccc3c(Nc4cnccn4)ccnc3c2)cn1" be said to have HepG2 TC50 at or above 7 µM?
result: class 1

----------
I'd appreciate it if you could supply LogD7.4 values for the items below.
assay: LogD7.4; format: physicochemical; conditions: pH 7.4

query: Retrieve LogD7.4 measured for CN1CCN(S(=O)(=O)c2ccc(-c3ccc4c(Nc5cccnc5)ccnc4c3)cc2)CC1 [NEU-1019] and print it.
result: 2

query: Look up and state reported LogD7.4 for COc1ccc(Nc2ccnc3cc(Nc4nccc(N5CCN(C)CC5)n4)ccc23)cc1Cl [NEU-2090]
result: 3.3

query: Answer with the recorded LogD7.4 for the molecule listed here: COc1ccc(Nc2ccnc3cc(-c4cnc(N5CCN(C)CC5)nc4)ccc23)cc1Cl [Compound 23]
result: 4.3

query: Please give measured LogD7.4 of the following entry: Cn1cc(-c2ccc3c(Nc4cnccn4)ccnc3c2)cn1 [NEU-2129]
result: 2.9

query: Respond only with LogD7.4 recorded for CN1CCN(c2ncc(-c3ccc4c(Nc5ccc6[nH]nnc6c5)ccnc4c3)cn2)CC1 [NEU-1957]
result: 3.3

query: Find the measured LogD7.4 of CN1CCN(S(=O)(=O)c2ccc(-c3ccc4c(Nc5ncc(Cl)cn5)ccnc4c3)cc2)CC1 [NEU-1025] and report it.
result: 4.1

query: Write down LogD7.4 measured for item CN1CCN(c2ncc(-c3ccc4c(Nc5cnccn5)ccnc4c3)cn2)CC1 [Compound 22]
result: 3.3

query: Name the recorded LogD7.4 of the molecule listed here: Cc1nn(C)c(C)c1Nc1ccc2c(Nc3cnccn3)ccnc2c1 [NEU-2142]
result: 2

query: Identify the reported LogD7.4 for the following entry. CN1CCN(S(=O)(=O)c2ccc(-c3ccc4c(Nc5cnc(C#N)cn5)ccnc4c3)cc2)CC1 [NEU-1024]
result: 3.7

query: Specify LogD7.4 for Cc1n[nH]c(C)c1Nc1ccc2c(Nc3cnccn3)ccnc2c1 [NEU-2146] and stop.
result: 1.8

query: Give recorded LogD7.4. CN1CCN(S(=O)(=O)c2ccc(-c3ccc4c(Nc5ccnnc5)ccnc4c3)cc2)CC1 [NEU-1020]
result: -0.5

query: Give the value of LogD7.4 reported for the following: Cc1cc(Nc2ccc3c(Nc4cnccn4)ccnc3c2)sn1 [NEU-2148]
result: 3.5

query: For the molecule Cc1cnc(Nc2ccc3c(Nc4cnccn4)ccnc3c2)s1 [NEU-2149] , give its reported LogD7.4.
result: 3.7

query: Please give the documented LogD7.4 of c1coc(-c2ccc3c(Nc4cnccn4)ccnc3c2)c1 [NEU-2131]
result: 3.8

query: Complete the entry with LogD7.4 for Cn1cc(Nc2ccc3c(Nc4cnccn4)ccnc3c2)cn1 [NEU-2143]
result: 1.9

query: For the molecule Cc1cc(Nc2ccnc3cc(-c4ccc(S(=O)(=O)N5CCN(C)CC5)cc4)ccc23)sn1 [NEU-1023] , report LogD7.4.
result: 4.2

query: Annotate the molecule c1cnc(Nc2ccnc3cc(-c4cn[nH]c4)ccc23)cn1 [NEU-2088] with its measured LogD7.4.
result: 2.6

query: Annotate the molecule CN1CCN(S(=O)(=O)c2ccc(-c3ccc4c(Nc5ccc6[nH]nnc6c5)ccnc4c3)cc2)CC1 [NEU-1018] with its measured LogD7.4.
result: 3.4

query: Please give the documented LogD7.4 of CN1CCN(c2ccnc(Nc3ccc4c(Nc5cnccn5)ccnc4c3)n2)CC1 [NEU-2091]
result: 2.8

query: Determine from records and report LogD7.4 for c1cnc(Nc2ccnc3cc(Nc4nccnn4)ccc23)cn1 [NEU-2145]
result: 2.1

query: For c1cnc(Nc2ccnc3cc(Nc4nccs4)ccc23)cn1 [NEU-2141] , write its LogD7.4.
result: 3.3

query: Please list LogD7.4 recorded for the molecule Cn1nccc1Nc1ccc2c(Nc3cnccn3)ccnc2c1 [NEU-2144]
result: 2.4

query: Supply recorded LogD7.4 for CN1CCN(c2nccc(Nc3ccc4c(Nc5cnccn5)ccnc4c3)n2)CC1 [NEU-2094] here.
result: 2.9

query: Give a short answer stating reported LogD7.4 for Cn1ccnc1Nc1ccc2c(Nc3cnccn3)ccnc2c1 [NEU-2147] .
result: 1.7

query: Entry COc1ccc(Nc2ccnc3cc(-c4ccc(C)o4)ccc23)cc1Cl [NEU-2134] needs its LogD7.4 filled in; supply it.
result: 4.8

query: Consider the molecule Cc1ccc(-c2ccc3c(Nc4cnccn4)ccnc3c2)o1 [NEU-2133] . State its measured LogD7.4.
result: 4

query: Report measured LogD7.4; entry is Cc1nnc(Nc2ccnc3cc(-c4ccc(S(=O)(=O)N5CCN(C)CC5)cc4)ccc23)nc1C [NEU-1028]
result: 3.4

query: Please report the measured LogD7.4 for COc1ccc(Nc2ccnc3cc(-c4cn[nH]c4)ccc23)cc1Cl [NEU-2087]
result: 3.5

query: Please give the documented LogD7.4 of CN1CCN(c2ccc(Nc3ccc4c(Nc5cnccn5)ccnc4c3)cc2)CC1 [NEU-2096]
result: 2.2
